EC50 for assorted compounds
Test system: HCV replicon in Huh7 cells
Method: HCV replicon cell-based assay
Parameters: species or system HCV strain 1B
Recorded conditions: Hepatitis C virus, Huh-7; HCV replicon, Huh7 cells; read-out: EC50 range

Use the examples below as a reference point.
Compound	Measurement
C=C[C@@H]1C[C@]1(NC(=O)[C@@H]1C[C@@H](Oc2ccnc(-c3cccn3C)c2)CN1C(=O)[C@@H](NC(=O)OC(C)(C)C)C(C)(C)C)C(=O)NS(=O)(=O)C1CC1	100 to 1000 nM
C=C[C@@H]1C[C@]1(NC(=O)[C@@H]1C[C@@H](Oc2ncc(OC)c3cc(OC)ccc23)CN1C(=O)[C@@H](NC(=O)OC(C)(C)C)C(C)(C)C)C(=O)NS(=O)(=O)C1CC1	< 100 nM
C=CC1C[C@]1(NC(=O)[C@@H]1C[C@@H](Oc2nc(Br)c(OC)c3ccccc23)CN1C(=O)[C@@H](NC(=O)OC(C)(C)C)C(C)(C)C)C(=O)NS(=O)(=O)C1CC1 (some centres unmarked)	< 100 nM

Now for a further compound.
Observed EC50 on HCV replicon in Huh7 cells for C=CC1C[C@]1(NC(=O)[C@@H]1C[C@@H](Oc2ccc3c(Cl)nccc3c2)CN1C(=O)[C@@H](NC(=O)OC(C)(C)C)C(C)(C)C)C(=O)NS(=O)(=O)C1CC1 (some centres unmarked) , please.
100 to 1000 nM
